# Tested on: Plasmodium berghei
# procedure.summary: Luciferase/luciferin-expressing antifolate-resistant parasites were used to infect a culture of HepG2 cells that were pre-incubated with compounds. Infected hepatocytes emit light due to the luciferase reaction. Assay results are presented as the percent inhibition of light emission compared to control. […]
# Assay type: functional
# condition.parameters: sporozoite, PBLUC_HILL_SLOPE 15.3, PBLUC_R_SQUARED 0.425, read-out: LUCIFERASE INFECTION ASSAY - IC50
quantity.kind: pIC50
pIC50 is defined as minus the log10 of a concentration measured in mol/L.

Qu. Entry under review: CCN(Cc1ccccc1)S(=O)(=O)c1cc(C(=O)N2CCc3ccccc3C2)ccc1OC . Reported pIC50?
Ans. 5.01

====

# Test system: Plasmodium berghei
# procedure.summary: Luciferase/luciferin-expressing antifolate-resistant parasites were used to infect a culture of HepG2 cells that were pre-incubated with compounds. Infected hepatocytes emit light due to the luciferase reaction. Assay results are presented as the percent inhibition of light emission compared to control. […]
# Type: functional
# condition.parameters: sporozoite, PBLUC_HILL_SLOPE 2.48, PBLUC_R_SQUARED 0.654, read-out: LUCIFERASE INFECTION ASSAY - IC50
quantity.kind: IC50 (µM)
The reply should contain only the number, in µM.

Qu. Give the measured IC50 of COc1ccc(OC)c(/C=c2\s/c(=C(/C#N)c3nnc4n3CCCCC4)n(-c3ccccc3)c2=O)c1 .
Ans. 4.74

====

# System: Plasmodium berghei
# procedure.summary: Luciferase/luciferin-expressing antifolate-resistant parasites were used to infect a culture of HepG2 cells that were pre-incubated with compounds. Infected hepatocytes emit light due to the luciferase reaction. Assay results are presented as the percent inhibition of light emission compared to control. […]
# Format: functional
# condition.parameters: sporozoite, HEPG2TOX_HILL_SLOPE 8.71, HEPG2TOX_R_SQUARED 0.815, PBLUC_HILL_SLOPE 16.7, PBLUC_R_SQUARED 0.29, read-out: LUCIFERASE INFECTION ASSAY - IC50
quantity.kind: IC50 (µM)
Express it in µM; write the number only.

Qu. Report IC50 for O=C1Nc2ccc([N+](=O)[O-])cc2/C1=N/NC(=S)NC1CCCCC1 please.
Ans. 3.35

====

# System: Plasmodium berghei
# procedure.summary: Luciferase/luciferin-expressing antifolate-resistant parasites were used to infect a culture of HepG2 cells that were pre-incubated with compounds. Infected hepatocytes emit light due to the luciferase reaction. Assay results are presented as the percent inhibition of light emission compared to control. […]
# Type: functional
# condition.parameters: sporozoite, FFLUC_HILL_SLOPE 3, FFLUC_R_SQUARED 0.28, HEPG2TOX_HILL_SLOPE 9.7, HEPG2TOX_R_SQUARED 0.823, PBLUC_HILL_SLOPE 15.6, 20.0, PBLUC_R_SQUARED 0.113, 0.608, read-out: LUCIFERASE INFECTION ASSAY - IC50
quantity.kind: pIC50
Entry type: numeric. Quantity: pIC50, the -log10 of concentration in molar units.

Qu. Item O=C(Nc1ccc(-n2cnc3ccccc32)nc1)c1ccc(S(=O)(=O)C(F)F)cc1 with Plasmodium berghei - pIC50?
Ans. 5.04

====

# Test system: Plasmodium berghei
# procedure.summary: Luciferase/luciferin-expressing antifolate-resistant parasites were used to infect a culture of HepG2 cells that were pre-incubated with compounds. Infected hepatocytes emit light due to the luciferase reaction. Assay results are presented as the percent inhibition of light emission compared to control. […]
# Assay type: functional
# condition.parameters: sporozoite, HEPG2TOX_HILL_SLOPE 5.45, HEPG2TOX_R_SQUARED 0.58, PBLUC_HILL_SLOPE 4.49, PBLUC_R_SQUARED 0.403, read-out: LUCIFERASE INFECTION ASSAY - IC50
quantity.kind: pIC50
Please report pIC50 as the negative decimal logarithm of the molar concentration, giving only the number.

Qu. Fill blank: measured pIC50 of the molecule Cc1cc(C(O)(C(F)(F)F)C(F)(F)F)c(C)n1-c1ccc(N(C)C)cc1 is ____.
Ans. 5.12

====

# System: Plasmodium berghei
# procedure.summary: Luciferase/luciferin-expressing antifolate-resistant parasites were used to infect a culture of HepG2 cells that were pre-incubated with compounds. Infected hepatocytes emit light due to the luciferase reaction. Assay results are presented as the percent inhibition of light emission compared to control. […]
# Assay type: functional
# condition.parameters: sporozoite, HEPG2TOX_HILL_SLOPE 1.73, HEPG2TOX_R_SQUARED 0.894, PBLUC_HILL_SLOPE 2.49, PBLUC_R_SQUARED 0.21, read-out: LUCIFERASE INFECTION ASSAY - IC50
quantity.kind: pIC50
Give only the number. pIC50 is defined as minus log10 of concentration in molar units.

Qu. Quick one: pIC50 of COc1nc2c(c(-c3ccc(SC)cc3)c1C#N)Cc1ccccc1-2 ?
Ans. 5.27

====

# Test system: Plasmodium berghei
# procedure.summary: Luciferase/luciferin-expressing antifolate-resistant parasites were used to infect a culture of HepG2 cells that were pre-incubated with compounds. Infected hepatocytes emit light due to the luciferase reaction. Assay results are presented as the percent inhibition of light emission compared to control. […]
# Assay type: functional
# condition.parameters: sporozoite, HEPG2TOX_HILL_SLOPE 22.1, HEPG2TOX_R_SQUARED 0.877, PBLUC_HILL_SLOPE 3.44, PBLUC_R_SQUARED 0.676, read-out: LUCIFERASE INFECTION ASSAY - IC50
quantity.kind: IC50 (nM)
# unit: nM | format: bare number

Qu. Value lookup for IC50; key = CCOC(=O)c1sc(NC(=O)Nc2ccc(Cl)c(Cl)c2)cc1C
Ans. 1250

====

# Test system: Plasmodium berghei
# procedure.summary: Luciferase/luciferin-expressing antifolate-resistant parasites were used to infect a culture of HepG2 cells that were pre-incubated with compounds. Infected hepatocytes emit light due to the luciferase reaction. Assay results are presented as the percent inhibition of light emission compared to control. […]
# Type: functional
# condition.parameters: sporozoite, HEPG2TOX_HILL_SLOPE 6.41, HEPG2TOX_R_SQUARED 0.384, PBLUC_HILL_SLOPE 10.4, PBLUC_R_SQUARED 0.292, read-out: LUCIFERASE INFECTION ASSAY - IC50
quantity.kind: IC50 (µM)
Respond with the bare value in µM.

Qu. If you can, please state the reported IC50 value of O=C(Nc1ccnn1Cc1ccc(Cl)cc1Cl)c1cccc(NC(=O)c2cccs2)c1 .
Ans. 8.61

====

# System: Plasmodium berghei
# procedure.summary: Luciferase/luciferin-expressing antifolate-resistant parasites were used to infect a culture of HepG2 cells that were pre-incubated with compounds. Infected hepatocytes emit light due to the luciferase reaction. Assay results are presented as the percent inhibition of light emission compared to control. […]
# Format: functional
# condition.parameters: sporozoite, HEPG2TOX_HILL_SLOPE 1.76, HEPG2TOX_R_SQUARED 0.892, PBLUC_HILL_SLOPE 2.97, PBLUC_R_SQUARED 0.356, read-out: LUCIFERASE INFECTION ASSAY - IC50
quantity.kind: pIC50
pIC50 is a log-scale quantity: -log10 of the concentration expressed in molar.

Qu. Given the entry Cc1cc(=O)n2ncnc2n1CC(O)COc1ccc(Oc2ccccc2)cc1 (stereo unspecified) , what pIC50 was observed with Plasmodium berghei?
Ans. 5.41

====

# Tested on: Plasmodium berghei
# procedure.summary: Luciferase/luciferin-expressing antifolate-resistant parasites were used to infect a culture of HepG2 cells that were pre-incubated with compounds. Infected hepatocytes emit light due to the luciferase reaction. Assay results are presented as the percent inhibition of light emission compared to control. […]
# Type: functional
# condition.parameters: sporozoite, read-out: LUCIFERASE INFECTION ASSAY - IC90
Here the recorded IC90 is given for each entry.

Reference set, count: 5
{"compound": "CCOc1ccc(NC(=O)c2ccc(F)cc2)cc1S(=O)(=O)N(C)C", "target.or.test.system": "Plasmodium berghei", "IC90": "> 10 µM"}
{"compound": "COc1ccc(OC)c(CCNc2nc3cnc(-c4cccc(Cl)c4)cc3n2C)c1", "target.or.test.system": "Plasmodium berghei", "IC90": "1.4 µM"}
{"compound": "COC(=O)c1ccc(-n2c(C)cc(C(=O)COC(=O)c3cc4c(=O)n5ccccc5nc4s3)c2C)cc1", "target.or.test.system": "Plasmodium berghei", "IC90": "> 10 µM"}
{"compound": "CCC(C)c1ccc(NC(=O)c2ccc[nH]c2=S)cc1 (stereo unspecified)", "target.or.test.system": "Plasmodium berghei", "IC90": "> 10 µM"}
{"compound": "O=C1OC(C=NC23CC4CC(CC(C4)C2)C3)c2ccccc21 (stereo unspecified)", "target.or.test.system": "Plasmodium berghei", "IC90": "> 11.2 µM"}

Qu. IC90 for Cc1sc2ncnc(SCC(=O)NC3CCN(Cc4ccccc4)C3)c2c1C (stereo unspecified) ?
Ans. > 10 µM

Qu. What value of IC90 has been reported for the following compound? Cc1cc(C(=O)COC(=O)c2ccccc2OCc2ccccc2Cl)c(C)n1CC1CCCO1 (stereo unspecified)
Ans. > 10 µM

Qu. // IC90 lookup, key: Cc1ccc(NC(=O)/C(=C/c2cccc(F)c2)n2nnnc2C)cc1S(=O)(=O)N1CCCCCC1
Ans. 4.24 µM

Qu. Look up IC90: CCNc1cc(C(=O)Nc2ccccc2)ncn1
Ans. > 13.6 µM

Qu. Which IC90 is listed for CCNc1nnc(SC(C)C(=O)Nc2ccc(OC(F)F)cc2)s1 (stereo unspecified) ?
Ans. > 10 µM

Qu. Record request: IC90 value, item NC(=O)c1cccc(-c2ccc3ncc(-c4cccs4)n3n2)c1
Ans. > 10 µM
